Test system: HFF
Assay: Cytotoxicity against HFF assessed as inhibition of [3H]-thymidine incorporation after 24 hrs by […] assay
Type: cell-based
Conditions: human
I'd appreciate it if you could supply INH values for the items below.

A selection of reference data follows.
Oc1cc(Cl)ccc1Oc1ccc(C(F)(F)F)cc1Cl :: > 10 µM
CC(C)(C)OC(=O)N1CCN(C(=O)c2ccc(Oc3ccc(Cl)cc3O)s2)CC1 :: > 10 µM
O=C(O)c1ccc(Oc2ccc(Cl)cc2O)s1 :: > 10 µM
CN1CCN(Cc2ccc(Oc3ccc(Cl)cc3O)cc2)CC1 :: > 10 µM
Oc1cc(Cl)ccc1Oc1ccc2ncccc2c1 :: > 10 µM

Please give INH for each item listed below.
1. Oc1cc(Cl)ccc1Oc1ccc(Cl)cc1Cl [TRICLOSAN]
2. CC(=O)N1CCN(c2ccc(Oc3ccc(Cl)cc3O)cc2)CC1
3. O=S(=O)(c1ccc(Oc2ccc(Cl)cc2O)cc1)N1CCCCC1
4. Cc1cc(NC(=O)c2ccc(Oc3ccc(Cl)cc3O)o2)no1

# output
> 10 µM
> 10 µM
> 10 µM
> 10 µM
